- test_name: DNDI: Lipophilicity (gLogD) at pH 3
- measurement_parameters: buffer, pH 3, logD
experimental_endpoint: chromatographic logD

Examples with their reported chromatographic logD follow.
compound=N#Cc1ccc(-n2ccnc2)c(NC(=O)c2cnc(-c3ccccc3)nc2)c1 measured_result=1.9
compound=CCN(Cc1cccnc1)c1ccc(-c2ccc(F)cc2)cc1F measured_result=3.49
compound="CCOC(COc1ccc2cc(Br)ccc2c1)Cn1ccnc1.O=CO (stereo not given)" measured_result=3.3
compound=CCN(CC)S(=O)(=O)c1ccc(-n2ccnc2)c(NC(=O)c2cnc(-c3ccccc3)nc2)c1 measured_result=2.7
compound=CS(=O)(=O)N(Cc1cnc[nH]1)c1ccc(-c2nc3ccccc3s2)cc1 measured_result=1.6

Q) Give its chromatographic logD value. Item: CO/N=C(\C)c1ccc(-n2ccnc2)c(NC(=O)c2cncc(-c3ccccc3)n2)c1
A) 2.8

Q) Which chromatographic logD value is on record for CC(=O)N(Cc1cccnc1)c1ccc(-c2nc3ccccc3s2)cc1 ?
A) 2.18

Q) Given CO/N=C(\C)c1ccc(-n2ccnc2)c(NC(=O)c2cnc(-c3ccccc3)cn2)c1 , state its recorded chromatographic logD.
A) 2.6

Q) So what's the measured chromatographic logD for this one? CCN(c1ccccc1)S(=O)(=O)c1ccc(NC(=O)CN(C)C2CCN(C)CC2)c(Cl)c1.Cl
A) 2.9

Q) Requested field: chromatographic logD. Item: O=C(C1CC1)N(Cc1cccnc1)c1cccc(-c2nc3ccccc3s2)c1
A) 3.4

* * *

- test_name: in vitro
- measurement_parameters: human, microsomes
experimental_endpoint: log10(microsomal CLint) (log10 of the value in µL/min/mg)
Recorded microsomal CLint (log10, µL/min/mg)

Solved entries (count: 6):
compound=CCN(c1ccccc1)S(=O)(=O)c1ccc(Cl)c(NC(=O)c2ccc3c(c2)CCNC3)c1 experimental_endpoint="log10(microsomal CLint)" measured_result=2.52
compound=CCN(Cc1cccnc1)c1ccc(-c2ccc(F)cc2)cc1F experimental_endpoint="log10(microsomal CLint)" measured_result=1.91
compound=CO/N=C(\C)c1ccc(-n2ccnc2)c(NC(=O)c2ccc(-c3cccs3)nc2)c1 experimental_endpoint="log10(microsomal CLint)" measured_result=2.01
compound=Cc1ccc(-n2ccnc2)c(NC(=O)c2cnc(-c3ccccc3)nc2)c1 experimental_endpoint="log10(microsomal CLint)" measured_result=1.97
compound=CO/N=C(\C)c1ccc(-n2ccnc2)c(NC(=O)c2cnc(-c3ccccc3)nc2)c1 experimental_endpoint="log10(microsomal CLint)" measured_result=1.38
compound=CCN(Cc1cnc[nH]1)c1cc(F)cc(-c2nc3ccccc3s2)c1 experimental_endpoint="log10(microsomal CLint)" measured_result=2.14

Q) So what's the measured log10(microsomal CLint) for this one? CN(CC(O)COc1ccc2cc(Br)ccc2c1)C1CCCCC1 (stereo not given)
A) 1.11

* * *

This section presents compounds with their documented chromatographic logD values.
- test_name: DNDI: Lipophilicity (gLogD) at pH 3
- measurement_parameters: buffer, pH 3, logD
Please give the numeric answer without any surrounding text.

compound=CCN(Cc1cccnc1)c1cncc(-c2nc3ccccc3s2)c1 experimental_endpoint="chromatographic logD" measured_result=1.56
compound=CO/N=C(\C)c1ccc(-n2ccnc2)c(NC(=O)c2cnc(-c3ccccc3)nc2)c1 experimental_endpoint="chromatographic logD" measured_result=2.6
compound="CCN(c1ccccc1)S(=O)(=O)c1ccc(Cl)c(NC(=O)CNC2CCCN(C)C2)c1.O=CO (stereo not given)" experimental_endpoint="chromatographic logD" measured_result=-0.12
compound="CC(C)N(C)CC(O)COc1ccc2cc(Br)ccc2c1 (stereo not given)" experimental_endpoint="chromatographic logD" measured_result=2.6

Q) Could you share which chromatographic logD value was measured for CCN(Cc1c[nH]cn1)c1ccc(-c2nc3ccccc3s2)cc1 ?
A) 2.1

* * *

- test_name: in vitro
- measurement_parameters: rat, microsomes
experimental_endpoint: half-life (min)
Respond numerically; units are min and should not be typed.

Example cases with answers are listed next.
mol_smiles=CO/N=C(\C)c1ccc(-n2ccnc2)c(NC(=O)c2ccc(-c3ccccn3)s2)c1 measured_result=27
mol_smiles=N#Cc1ccc(-n2ccnc2)c(NC(=O)c2cnc(-c3ccccc3)s2)c1 measured_result=73

Q) Endpoint output: half-life of CO/N=C(\C)c1ccc(-n2ccnc2)c(NC(=O)c2cnn(-c3ccccn3)c2)c1 . Value?
A) 64

Q) Any idea what its half-life is? The compound is CO/N=C(\C)c1ccc(-n2ccnc2)c(NC(=O)c2ccc(-c3ccccc3)nc2)c1
A) 36

Q) Need half-life, item CO/N=C(\C)c1ccc(-n2ccnc2)c(NC(=O)c2ccc(-c3ccccc3)cc2)c1
A) 40

Q) Requested read-out: half-life. Entry: CO/N=C(\C)c1ccc(-n2ccnc2)c(NC(=O)c2cnc(-c3ccccc3)cn2)c1
A) 35

Q) Suppose we examine the compound CO/N=C(\C)c1ccc(-n2ccnc2)c(NC(=O)c2cnc(-c3ccccc3)nc2)c1 ; what half-life value has been reported?
A) 38

* * *

- test_name: in vitro
- measurement_parameters: human, microsomes
experimental_endpoint: microsomal CLint (µL/min/mg)
The reply should contain only the number, in µL/min/mg.

Take a look at these entries with their results.
mol_smiles=CCN(CC)S(=O)(=O)c1ccc(-n2ccnc2)c(NC(=O)c2cnc(-c3ccccc3)nc2)c1 measurement_units=µL/min/mg measured_result=166
mol_smiles=CC(C)Cc1ccc(-n2ccnc2)c(NC(=O)c2cnc(-c3ccccc3)s2)c1 measurement_units=µL/min/mg measured_result=157
mol_smiles=N#Cc1ccc(-n2ccnc2)c(NC(=O)c2cnc(-c3ccccc3)s2)c1 measurement_units=µL/min/mg measured_result=11

Q) Which microsomal CLint value is on record for CO/N=C(\C)c1ccc(-n2ccnc2)c(NC(=O)c2cncc(-c3ccccc3)n2)c1 ?
A) 117

Q) I have this molecule here, CCS(=O)(=O)N(Cc1cccnc1)c1cccc(-c2nc3ccccc3s2)c1 , and I need its recorded microsomal CLint.
A) 346

Q) Given the entry CCN(Cc1cccnc1)c1cc(F)cc(-c2nc3ccccc3s2)c1 , report its measured microsomal CLint.
A) 179

Q) Give the measured microsomal CLint of CC(=O)N(Cc1cccnc1)c1ccc(-c2nc3ccccc3s2)cc1 .
A) 98.3

Q) Record request: microsomal CLint value, item CO/N=C(\C)c1ccc(-n2ccnc2)c(NC(=O)c2cnc(-c3ccccc3)cn2)c1
A) 30

* * *

pIC50: recorded values
- System: Trypanosoma brucei rhodesiense
- test_name: DNDI: HAT in Vitro
- Assay type: functional, organism-based, ATCC 30027
- measurement_parameters: Trypanosoma brucei, ATCC 30027
Scale: negative log10 of molar concentration, which is what pIC50 denotes.

mol_smiles=CCN(c1ccccc1)S(=O)(=O)c1ccc(Cl)c(NC(=O)c2ccc3c(c2)CCNC3)c1 measured_result=6.22

Moving on to the next compound.
Q) # pIC50 lookup, item CCN(c1ccccc1)S(=O)(=O)c1ccc(NC(=O)CN(C)C2CCN(C)CC2)c(Cl)c1.Cl
A) 5.85

* * *

- test_name: DNDI: Lipophilicity (gLogD) at pH 7.4
- measurement_parameters: buffer, pH 7.4, logD
The entries below are paired with their reported chromatographic logD.
Simply state the number, no unit and no words.

Below, 2 compounds whose answers are already recorded.
compound="CC(C)N(C)CC(O)COc1ccc2cc(Br)ccc2c1 (centres undefined)" experimental_endpoint="chromatographic logD" measured_result=3.6
compound=CCS(=O)(=O)N(Cc1cccnc1)c1cccc(-c2nc3ccccc3s2)c1 experimental_endpoint="chromatographic logD" measured_result=3.6

Q) Looking for the measured chromatographic logD of CN(C)S(=O)(=O)c1ccc(-n2ccnc2)c(NC(=O)c2cnc(-c3ccccc3)s2)c1 , can you help?
A) 3

* * *

- test_name: in vitro
- measurement_parameters: rat, microsomes
Just a reminder that ties go to Condition not met: only microsomal CLint strictly below 40 µL/min/mg counts as Condition met.

mol_smiles=N#Cc1ccc(-n2ccnc2)c(NC(=O)c2cnc(-c3ccccc3)s2)c1 assigned_class="Condition met"
mol_smiles=CO/N=C(\C)c1ccc(-n2ccnc2)c(NC(=O)c2ccc(-c3ccccn3)s2)c1 assigned_class="Condition not met"
mol_smiles=CO/N=C(\C)c1ccc(-n2ccnc2)c(NC(=O)c2cnc(-c3ccccc3)nc2)c1 assigned_class="Condition not met"
mol_smiles=CO/N=C(\C)c1ccc(-n2ccnc2)c(NC(=O)c2ccc(-c3ccccc3)nc2)c1 assigned_class="Condition not met"
mol_smiles=CO/N=C(\C)c1ccc(-n2ccnc2)c(NC(=O)c2cnc(-c3ccccc3)cn2)c1 assigned_class="Condition not met"
mol_smiles=CO/N=C(\C)c1ccc(-n2ccnc2)c(NC(=O)c2cnn(-c3ccccn3)c2)c1 assigned_class="Condition met"

In the following, a different compound is considered.
Q) Would you kindly verify if microsomal CLint of CO/N=C(\C)c1ccc(-n2ccnc2)c(NC(=O)c2ccc(-c3ccccc3)cc2)c1 is strictly less than 40 µL/min/mg?
A) Condition not met

* * *

- tested_on: UniProtKB P08684
- Sequence (P08684 whole entry): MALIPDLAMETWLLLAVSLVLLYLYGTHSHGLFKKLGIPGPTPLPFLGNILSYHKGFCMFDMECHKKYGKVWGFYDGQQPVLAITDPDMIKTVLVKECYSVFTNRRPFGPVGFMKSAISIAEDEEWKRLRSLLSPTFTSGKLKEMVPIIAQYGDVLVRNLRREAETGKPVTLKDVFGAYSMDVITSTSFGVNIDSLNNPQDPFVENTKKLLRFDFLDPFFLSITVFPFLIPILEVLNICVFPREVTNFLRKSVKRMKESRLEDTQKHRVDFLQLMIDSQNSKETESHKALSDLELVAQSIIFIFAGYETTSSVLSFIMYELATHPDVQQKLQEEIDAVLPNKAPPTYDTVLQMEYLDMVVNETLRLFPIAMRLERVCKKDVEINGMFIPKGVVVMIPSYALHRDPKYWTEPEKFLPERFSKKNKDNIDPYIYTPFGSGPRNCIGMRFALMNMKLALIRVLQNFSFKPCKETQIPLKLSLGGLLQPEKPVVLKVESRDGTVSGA
- test_name: DNDI: CYP Inhibition
- Assay type: ADME
experimental_endpoint: pIC50
FYI, pIC50 means -log10 of a concentration in mol per litre.

Q) May I ask what pIC50 has been recorded for OC(COc1ccc2cc(Br)ccc2c1)Cn1ccnc1 (configuration not stated) ?
A) 6.15
